B1: INTS3 (parent)
chain: FHPIKETVVEEPVDITPYLDQLDE

Variants of: B1
Experiment: protein stability index of a GFP-peptide fusion (GPS, HEK-293T) (PSI 1-6); higher = more stable;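 note: lentivirally expressed fusions sorted by FACS into six bins by GFP to DsRed ratio, PSI derived from sequencing read proportions per bin multiplied by bin number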
Details: c terminus: a fixed tail appended
Experimental Endpoint: protein stability index

In the examples that follow, each entry is paired with its recorded protein stability index.
1) FHPIKFTVVEEPVDITPYLDQLDE [E6F] :: 1.53
2) FHPIKETVVEEPVDITPSLDQLDE [Y18S] :: 3.77
3) FHPIKETVVEEPYDITPYLDQLDE [V13Y] :: 3.2

Give measured protein stability index for every item shown.
1. FHPIKETVVEEPVDITPYLDQLCE [D23C]
2. FHPIAETVVEEPVDITPYLDQLDE [K5A]

1: 2.48; 2: 4.47
